Biological target: T1, human myostatin (mature, recombinant; R&D Systems) (human, UniProt O14793 267-375)
T1 sequence: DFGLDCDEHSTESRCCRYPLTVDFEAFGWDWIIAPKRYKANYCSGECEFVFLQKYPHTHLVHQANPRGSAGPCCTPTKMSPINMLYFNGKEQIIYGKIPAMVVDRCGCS
Assay: cell-based or functional assay
parameter: pSmad2 IC50, 4-point (nM)

Example results:
Query: Any idea what pSmad2 IC50, 4-point was measured for 3116_C01 (designed binder) MGVSDVPRDLEVVAATPTSLLISWSLPNPGIAHYYRITYGETGGNSPVQEFTVPGRGVTATISGLKPGVDYTITVYAVTLTGSDTIFYKPISINYRTEIDKPSQHHHHHH ?
Result: 0.26

Query: Also need 3146_A08 (designed binder) MGVSDVPRDLEVVAATPTSLLISWSLPNPGNAHYYRITYGETGGNSPVQEFTVPGRGVTATISGLKPGVDYTITVYAVTVTDTGFITYKPISINYRTEIDKPSQHHHHHH , thanks.
Result: 0.78

1 = 3116_C06 (designed binder) MGVSDVPRDLEVVAATPTSLLISWSLPRPGNAHYYRITYGETGGNSPVQEFTVPGRGVTATISGLKPGVDYTITVYAVTVTGKDVIKYKPISINYRTEIDKPSQHHHHHH
2 = 3116_A06 (designed binder, also called WT parent) MGVSDVPRDLEVVAATPTSLLISWSLPHQGKANYYRITYGETGGNSPVQEFTVPGRGVTATISGLKPGVDYTITVYAVTVTDTGYLKYKPISINYRTEIDKPSQHHHHHH
Query: Hey, between 1 and 2 which has a smaller measured pSmad2 IC50, 4-point? # reply format: chosen label
Result: 2
(2: 0.27 nM, 1: 0.73 nM)
